# Test system: T2 cells
# test-method-notes: IFN-γ ELISA of peptide-stimulated CTLs against peptide-pulsed T2 cells
# Assay type: cell-based, human
# experimental-context: target: T2 + 804; ELISA of supernatant
We begin with a simple list: items and their reported IFN-γ induced by PBMC stimulus for CTL generation, target T2 + 804.
Value expressed in pg/mL; do not type the unit.

>>> endpoint_result("ILSAFSVYV (Homo sapien) [CD133-405]")
390
>>> endpoint_result("SLNDPLCLV (Homo sapien) [CD133-301]")
252
>>> endpoint_result("GLLERVTRI (Homo sapien) [CD133-708]")
258
>>> endpoint_result("LLFIILMPLV (Homo sapien) [CD133-117]")
336

Shifting focus to the sequence that follows.
IFN-γ induced by PBMC stimulus for CTL generation, target T2 + 804 value, target or system T2 cells, for FLLPALIFAV (Homo sapien) [CD133-804] : 409

* * *

We begin with a simple list: items and their reported IFN-γ induced by PBMC stimulus for CTL generation, target T2 + 301.
# System: T2 cells
# test-method-notes: IFN-γ ELISA of peptide-stimulated CTLs against peptide-pulsed T2 cells
# Assay type: cell-based, human
# experimental-context: target: T2 + 301; ELISA of supernatant
# Protocol: The binding of the peptide-primed CTLs to HLA-A2 positive human cells was also tested. […] On the next day and then every 3 days thereafter, 300 IU/ml of IL-2 was added to the medium. […] After three cycle stimulations, these CTLs could efficiently recognize both HLA-A2 and CD133 positive cancer stem cells, as measured by amount of IFN-γ (pg/ml) in supernatant detected by ELISA (Table 2). […]
Value expressed in pg/mL; do not type the unit.

>>> endpoint_result("FLLPALIFAV (Homo sapien) [CD133-804]")
148

Sample LLFIILMPLV (Homo sapien) [CD133-117] ; IFN-γ induced by PBMC stimulus for CTL generation, target T2 + 301 observed: 247

Sample SLNDPLCLV (Homo sapien) [CD133-301] ; IFN-γ induced by PBMC stimulus for CTL generation, target T2 + 301 observed: 165

Sample GLLERVTRI (Homo sapien) [CD133-708] ; IFN-γ induced by PBMC stimulus for CTL generation, target T2 + 301 observed: 234

Sample ILSAFSVYV (Homo sapien) [CD133-405] ; IFN-γ induced by PBMC stimulus for CTL generation, target T2 + 301 observed: 311

* * *

# Tested on: T2 cells
# test-method-notes: IFN-γ ELISA of peptide-stimulated CTLs against peptide-pulsed T2 cells
# Assay type: cell-based, human
# experimental-context: target: T2 + 405; ELISA of supernatant
// assign Condition met if IFN-γ induced by PBMC stimulus for CTL generation, target T2 + 405 falls strictly below 300 pg/mL, else Condition not met (ties count as Condition not met)

>>> label("GLLERVTRI (Homo sapien) [CD133-708]")
"Condition not met"
>>> label("ILSAFSVYV (Homo sapien) [CD133-405]")
"Condition not met"
>>> label("SLNDPLCLV (Homo sapien) [CD133-301]")
"Condition met"

Okay, next one:
# check: IFN-γ induced by PBMC stimulus for CTL generation, target T2 + 405 < 300 pg/mL for LLFIILMPLV (Homo sapien) [CD133-117] Condition met
